Test: folding enthalpy; higher = less favourable; fluorescence melt of hairpins on a sequencing array, two-state fit
Conditions: sodium 0.088 M
Response field class: string, computed from recorded folding enthalpy by ranges bottom range (below -30 kcal/mol), center range (-30 kcal/mol to below -20 kcal/mol), top range (-20 kcal/mol or more)

The examples below pair each entry with its known result.
Q: Quick check: band for GATCATCTTTATGATC ((((((....))))))
Result: bottom range

Q: # iterate: GTCGTAGGAAACTGTGAC (((..((....))..)))
Result: top range

Q: Likewise for GTTGTAACGAAAGTTAAC (((..(((....)))))) ?
Result: center range

Q: Try this sequence next: GGACGCGAAAGCGACTCC ((((((....)))..)))
Result: top range

---
Q: For GCTTTGCGAAAGCAAGC (((.(((....)))))) , which folding enthalpy bin applies?
Result: top range

Q: Please give the result for GCTCACGAAAGTGGCAGC ((((((....)))..))) too.
Result: top range

Q: Next entry: CGTGCGGAAACGCCCACG ((((((....)))..)))
Result: center range

Q: Query GATCATATACATGATC ((((((....)))))) next
Result: bottom range

Q: Try this sequence next: GCTCTGCGAAAGCACTGC ((..(((....)))..))
Result: top range

Q: Another sequence: GTACCCTCGAAAGAGTAC (((..(((....))))))
Result: top range

Q: Let us now turn to GGATGTCGAAAGACCTCC (((.(((....))).)))
Result: center range

Q: What would you report for GCTTCCGAAAGGAGCAGC ((((((....)))..))) ?
Result: top range

Q: And GCGTACGGAAACGCACGC ((((.((....)).)))) ?
Result: bottom range

Q: And the next one, GAACTGGGAAACCAGTTC (((((((....))))))) ?
Result: bottom range

Q: Similarly, GATCGCCCAGCGATC ((((((...)))))) ?
Result: bottom range

Q: Okay, and GACTGCGAAAGCATGTC ((((((....))).))) ?
Result: center range

Q: For GATCAGTTGGCTGATC ((((((....)))))) then?
Result: bottom range

Q: Ok, now GCGACGCGAAAGCCTAGC ((.(.((....)).).))
Result: top range
